# System: A549 NSCLC
# Test: NCI tumour cell line growth inhibition, 48 h
Endpoint: TGI

Examples from the recorded data:
Lookup: For the molecule shown here, N#Cc1nc(Cc2ccccc2)oc1N , give the reported TGI.
Found: > 100 µM

Lookup: Fill in: TGI of C=C1C(C[C@@H]2O[C@H]3C[C@H]4O[C@@]5(C[C@@H]6O[C@]7(C[C@H](C)[C@@H]8O[C@@H]9CC(C(O)CO)O[C@@H]9C[C@@H]8O7)C[C@H](C)[C@@H]6O5)C[C@H]4O[C@H]3[C@H](C)[C@H]2O)O[C@@H](CC[C@@H]2O[C@@H](CC[C@@]34CC5O[C@H]6C(O[C@H]7CC[C@H](CC(=O)OC)O[C@@H]7[C@@H]6O3)[C@H]5O4)CC2=C)C[C@H]1C (stereo partly drawn) is ___
Found: > 0.783 µM

Could you tell me TGI for each of these molecules? They are listed below.
1. COC(=O)CC1(O)C(C=C(C)C)C(C(=O)OC)C(=O)C(C(=O)OC)C1C(=O)OC (stereo not drawn)
2. O=C(N/N=C/c1cc(Br)cc(Br)c1[O-])c1ccccc1O.O=C(N/N=C/c1cc(Br)cc(Br)c1[O-])c1ccccc1O.[Mn+2]
3. CCOC(=O)C1(Cc2ccccc2)CCN(C(=O)c2ccccc2)C2C1C2(Cl)Cl (stereo not drawn)
4. CNS(=O)(=O)NN(C)S(=O)(=O)c1ccc(Br)cc1
5. C#CC[C@H](c1nc2cc(Cl)ccc2c(=O)n1Nc1ccccc1)N(CCCN)C(=O)c1cccc(Cl)c1F

Found:
1: > 100 µM; 2: 25.5 µM; 3: > 100 µM; 4: > 100 µM; 5: 1.87 µM
